# System: T-47D breast
# Protocol notes: NCI tumour cell line growth inhibition, 48 h
Measured GI50, listed per entry.
Reported metric: GI50

[[record]]
molecule = "CN1CCN(C(=S)SCN2C(=O)c3ccccc3S2(=O)=O)CC1"
assay_result = "11 µM"

[[record]]
molecule = "CCOC(=O)Cc1csc(NC(=O)C(OC(=O)c2ccc(N)cc2)c2ccccc2)n1 (stereo not given)"
assay_result = "55.2 µM"

[[record]]
molecule = "CCCCCCCCCCCCCCCCCC1=NC(C)(C)CN1CCO"
assay_result = "2.24 µM"

[[record]]
molecule = "Cc1csc(Nc2nc(-c3cccc(Cl)c3)nc(C(Cl)(Cl)Cl)n2)n1"
assay_result = "1.04 µM"

[[record]]
molecule = "CCCCCCCCCCCCNC(=O)[C@H]1CSC(c2ccc(OC)c(F)c2)N1 (stereo not given in full)"
assay_result = "1.75 µM"

[[record]]
molecule = "COc1cc(OC)c(/C=C/S(=O)(=O)Cc2ccc(OC)c(NCC(=O)O)c2)c(OC)c1"
assay_result = "> 100 µM"

[[record]]
molecule = "OCCCCC#Cc1ccccc1C#Cc1cnccn1"
assay_result = "27.5 µM"

[[record]]
molecule = "C=C(C)[C@@H]1CCC[C@]2(C(=O)O)CC[C@]3(C)[C@@H](CC[C@@H]4[C@@]5(C)C/C(=C/c6ccncc6)C(=O)C(C)(C)[C@@H]5CC[C@]43C)[C@@H]12"
assay_result = "3.98 µM"

[[record]]
molecule = "COc1ccc(N=C2NN=C(c3c[nH]c4ccccc34)CS2)cc1OC"
assay_result = "5.04 µM"

[[record]]
molecule = "COc1cc(/C=C\\c2cccnc2Nc2ccccc2)cc(OC)c1OC"
assay_result = "5.3 µM"


====

# System: M14 melanoma
# Protocol notes: NCI tumour cell line growth inhibition, 48 h
Reported metric: TGI (µM)

[[record]]
molecule = "CSc1s[s+]c(SC)c1-c1ccccc1"
reported_metric = "TGI"
censoring_qualifier = "="
assay_result = 30.8

[[record]]
molecule = "O=C(OCc1nc2ccc(Br)cc2c(=O)n1-c1ccccc1)c1ccccc1O"
reported_metric = "TGI"
censoring_qualifier = ">"
assay_result = 100

[[record]]
molecule = "COc1cc2c(cc1OC)C1Cc3ccccc3CN1CCC2 (centres undefined)"
reported_metric = "TGI"
censoring_qualifier = ">"
assay_result = 100

[[record]]
molecule = "COc1cc(C(=O)N/N=C/c2cccc([N+](=O)[O-])c2)cc(OC)c1OC"
reported_metric = "TGI"
censoring_qualifier = "="
assay_result = 54.3


====

# Test system: SF-268 CNS
# Protocol notes: NCI tumour cell line growth inhibition, 48 h; in the data active = GI50 below about 0.43 µM; inactive = the rest
Outcome codes: active, inactive

[[record]]
compound = "CCOC(=O)C1=C(c2ccccc2)N(Cc2ccccc2)C2(O)C=CC(=O)C3C(=O)N(c4ccccc4)C(=O)C132 (stereo not given)"
class_assignment = "inactive"

[[record]]
compound = "CN(C)c1ccc(Sc2ccc3nc(N)nc(N)c3c2)cc1"
class_assignment = "inactive"

[[record]]
compound = "COc1ccc(N=C2NN=C(c3c[nH]c4ccccc34)CS2)cc1OC"
class_assignment = "inactive"

[[record]]
compound = "COc1ncnc2c(-c3ccco3)cn(COCc3ccccc3)c12"
class_assignment = "inactive"

[[record]]
compound = "Cn1cc(-c2nn3cc(-c4cccs4)nc3s2)c2cc(F)ccc21"
class_assignment = "inactive"

[[record]]
compound = "O=C(NO)C(O)C(O)C(O)C(O)CO (stereo not given)"
class_assignment = "inactive"

[[record]]
compound = "CC(C)n1nc(C#Cc2cccc(NC(=O)c3cccc(C(F)(F)F)c3)c2)c2c(N)ncnc21"
class_assignment = "inactive"

[[record]]
compound = "Cc1csc(Nc2nc(-c3cccc(Cl)c3)nc(C(Cl)(Cl)Cl)n2)n1"
class_assignment = "inactive"

[[record]]
compound = "CC(=O)N[C@@H]1CCC[C@H](C(=O)Nc2cc(-c3cnn4c3CC(C)(C)C4)c(Cl)cn2)C1"
class_assignment = "active"

[[record]]
compound = "CCCCCCCCCCCCCCCCCC1=NC(C)(C)CN1CCO"
class_assignment = "inactive"


====

# Tested on: HOP-92 NSCLC
# Protocol notes: NCI tumour cell line growth inhibition, 48 h
Reported metric: log10 of TGI (log10 of the value in µM)

[[record]]
molecule = "BrCC[P+](c1ccccc1)(c1ccccc1)c1ccccc1"
assay_result = 1.12

[[record]]
molecule = "Cn1cc(-c2nn3cc(-c4cccs4)nc3s2)c2cc(F)ccc21"
assay_result = 1.89

[[record]]
molecule = "COc1cc(O)c2c(c1)C(O)C(O)CC1OC1C(=O)/C=C/CC(C)OC2=O (centres undefined)"
assay_result = 0.43

[[record]]
molecule = "CC(C)=C1CCC(CN2CCCC2)C1=O (centres undefined)"
assay_result = 1.77

[[record]]
molecule = "COc1ccc(CC2C(=O)NC(C)C(=O)N(C)C3Cc4ccc(cc4)Oc4cc(ccc4O)CC(C(=O)NC(C)C(=O)NC(C)C(=O)N2C)N(C)C3=O)cc1 (centres undefined)"
assay_result = -3.06

[[record]]
molecule = "CN1CC(C(=O)NC2(C)OC3(O)C4CCCN4C(=O)C(Cc4ccccc4)N3C2=O)C=C2c3cccc4[nH]cc(c34)CC21 (centres undefined)"
assay_result = 1.59

[[record]]
molecule = "O=C(Nc1ccccc1)Nc1ccccc1CNc1nc(Nc2ccc(OCCN3CCCC3)cc2)ncc1Cl"
assay_result = 1.03

[[record]]
molecule = "COC(=O)C1CCC(=NC2c3ccccc3-c3ccccc32)N1 (centres undefined)"
assay_result = 1.88

[[record]]
molecule = "Cc1csc(Nc2nc(-c3cccc(Cl)c3)nc(C(Cl)(Cl)Cl)n2)n1"
assay_result = 0.51

[[record]]
molecule = "CCNC(=O)Oc1ccc(/C(=C(\\C)c2ccc(Cl)cc2)c2ccc(OCCN3CCCCC3)cc2)cc1"
assay_result = 0.97

[[record]]
molecule = "C=C1C(=O)O[C@H]2C(=O)[C@H](C)CCC[C@@](C)(O)/C=C\\C[C@@]3(C)O[C@@H]3C[C@@H]12"
assay_result = 1.38

[[record]]
molecule = "N#Cc1nnc2c3c(-c4ccc(Cl)cc4)c(C#N)c(=O)[nH]c3nn2c1N"
assay_result = 1.45

[[record]]
molecule = "COc1cc(C(=O)/C=C/c2c(C(F)(F)F)nc3sccn23)cc(OC)c1OC"
assay_result = 1.35

[[record]]
molecule = "Cn1c(COC(=O)NCCN2CCOCC2)nc2c(N3CCOCC3)nc(-c3ccccc3)nc21"
assay_result = 0.39

[[record]]
molecule = "O=[N+]([O-])c1cccc(-c2ncc(-c3ccc(Cl)cc3Cl)[nH]2)c1"
assay_result = 1.55

[[record]]
molecule = "CSc1s[s+]c(SC)c1-c1ccccc1"
assay_result = 1.53

[[record]]
molecule = "CC[C@@]1(O)C(=O)OCc2c1cc1n(c2=O)Cc2cc3c(NC(C)=O)c(O)ccc3nc2-1"
assay_result = 1.72

[[record]]
molecule = "COc1cc(/C=C\\c2cccnc2Nc2ccccc2)cc(OC)c1OC"
assay_result = 0.96


====

Measured TGI, listed per entry.
# Tested on: SF-539 CNS
# Protocol notes: NCI tumour cell line growth inhibition, 48 h
Reported metric: TGI

[[record]]
compound = "Cc1csc(Nc2nc(-c3cccc(Cl)c3)nc(C(Cl)(Cl)Cl)n2)n1"
assay_result = "11.7 µM"

[[record]]
compound = "Cc1cccc(N2CCN(S(=O)(=O)c3ccc(Cl)cc3)C2=N)c1C"
assay_result = "> 100 µM"

[[record]]
compound = "Cc1cccc(N2C(=O)/C(=C/c3ccc(N(CCC#N)CCC#N)cc3C)N=C2c2cc([N+](=O)[O-])ccc2Cl)c1"
assay_result = "> 100 µM"

[[record]]
compound = "O=C1c2ccccc2C(=O)c2c1ccc1c3ccccc3n(Cc3ccccc3)c21"
assay_result = "> 100 µM"

[[record]]
compound = "CSc1nc(Br)nc2c1ncn2C1CC(Oc2ccc(C)cc2)C(COc2ccc(C)cc2)O1 (stereo not given)"
assay_result = "> 100 µM"

[[record]]
compound = "Cc1cnc2[nH]c(-c3ccccc3)cc(=O)c2c1"
assay_result = "0.0671 µM"

[[record]]
compound = "c1csc(-c2ccc(-c3ccc(-c4cccs4)s3)s2)c1"
assay_result = "> 100 µM"

[[record]]
compound = "CN1CCN(C(=S)SCN2C(=O)c3ccccc3S2(=O)=O)CC1"
assay_result = "> 100 µM"

[[record]]
compound = "CC(=O)c1nccc2c1c(C)nc1ccccc12"
assay_result = "> 100 µM"

[[record]]
compound = "CC(C)(C)NCCC(O)c1cc(C(F)(F)F)nc2c(C(F)(F)F)cccc12 (stereo not given)"
assay_result = "31 µM"

[[record]]
compound = "C[C@H](NC(=O)CCC(F)(F)F)C(=O)N[C@@H]1C(=O)N(CCO)c2ncccc2-c2ccccc21"
assay_result = "> 100 µM"

[[record]]
compound = "COc1ccc(-n2nc(C)c3c2N(C)C2(C)C[C@@H]4C3(C)[C@@H]3CC4(C2)N(C)c2c(c(C)nn2-c2ccc(OC)cc2)[C@H]3C)cc1 (stereo not given in full)"
assay_result = "> 100 µM"

[[record]]
compound = "O=C1N2CCc3c([nH]c4ccccc34)C23CC2CCCC12S3 (stereo not given)"
assay_result = "> 50 µM"

[[record]]
compound = "COC1C(CO)OC(n2c3ccccc3c3c4c(c5c6ccccc6[nH]c5c32)C(=O)NC4=O)C(O)C1OC(=O)C(N)CCCCN (stereo not given)"
assay_result = "0.821 µM"

[[record]]
compound = "CCCCCCN(CCCCCC)CC(O)c1cccc2ccc(Cl)cc12 (stereo not given)"
assay_result = "4.95 µM"

[[record]]
compound = "O=[N+]([O-])c1cccc(-c2ncc(-c3ccc(Cl)cc3Cl)[nH]2)c1"
assay_result = "29.3 µM"

[[record]]
compound = "OCCCCC#Cc1ccccc1C#Cc1cnccn1"
assay_result = "> 100 µM"

[[record]]
compound = "Cc1ccc(S(=O)(=O)NC(=O)NS(=O)(=O)O)cc1"
assay_result = "> 100 µM"

[[record]]
compound = "COc1cccc(N2N=C3c4ccccc4-n4c(nc5ccccc54)C3C2N)c1 (stereo not given)"
assay_result = "> 100 µM"

[[record]]
compound = "CC(=O)OCC1OC(n2c3c(c(-c4ccco4)c(C#N)c2=S)CCCC3)C(OC(C)=O)C(OC(C)=O)C1OC(C)=O (stereo not given)"
assay_result = "> 31.6 µM"


Each recorded value in this set is attributed to PubChem BioAssay (NCI).
